# experimental.protocol: gradient 5% acetonitrile 3 min, to 50% in 2 min, to 85% in 15 min, held 3 min, 100 µL/min
# assay.context: column: Zorbax Extend-C18 2.1 x 50 mm; eluents: water / acetonitrile, 0.1% formic acid
parameter: RP-LC retention time (s)

a. Cc1noc(-c2cccc(OC3CN(C(=O)c4cnn(C)c4)C3)c2)n1
b. COc1cccc(-c2noc(COC(=O)C3=CN(Cc4ccccc4)S(=O)(=O)N=C3C)n2)c1
Please indicate which entry, a or b , has the lower recorded RP-LC retention time value. Provide the label of your selected option as the answer.
a
(a: 700 s, b: 1110 s)

A. Cc1ccccc1NC(=O)Cc1cccn1-c1ccc(Cl)cc1
B. Cc1ccn(CC(=O)N2CC(n3cc(COc4ccc(F)cc4)nn3)C2)n1
Between these two entries, A and B , state which has the higher RP-LC retention time. State your choice using its label.
A
(A: 1040 s, B: 716 s)

a. COc1ccccc1N1CC(c2nc3ccccc3n2CC(=O)N(C(C)C)C(C)C)CC1=O (centres undefined)
b. COC(=O)c1c(-c2ccc(Cl)cc2)noc1NC(C)C
Of the pair a and b , name the member with the lesser recorded RP-LC retention time. Identify your selection by its label.
a
(a: 752 s, b: 1090 s)

###

# experimental.protocol: gradient 5% acetonitrile 3 min, to 50% in 2 min, to 85% in 15 min, held 3 min, 100 µL/min
# assay.context: column: Zorbax Extend-C18 2.1 x 50 mm; eluents: water / acetonitrile, 0.1% formic acid
parameter: RP-LC retention time (s)

Sample records with RP-LC retention time:
molecule: COc1ccc(-c2nnc(-c3ccccc3)o2)cc1S(=O)(=O)NC(C)(C)C
RP-LC retention time [s]: 955
--
molecule: COc1cccc(C(=O)Nc2nc(-c3ccc4c(c3)N(C)C(=O)CO4)c(C)s2)c1
RP-LC retention time [s]: 978
--
molecule: Cc1ccc(C)c(-c2cc(C(N)=O)[nH]n2)c1
RP-LC retention time [s]: 695
--
molecule: COC[C@H]1NC(=O)CC[C@H]1C(=O)Nc1ccc2c(c1)OCCO2
RP-LC retention time [s]: 632
--
molecule: Cc1cccnc1NC(=O)c1csnn1
RP-LC retention time [s]: 637
--
molecule: COC(=O)c1c(NC(=O)c2cc3ccccc3c(=O)o2)sc2c1CCCC2
RP-LC retention time [s]: 748
--
molecule: C=C[C@]12CN(C)C3C4COC(CC41)[C@]1(C(=O)Nc4ccccc41)[C@@H]32 (stereo not given in full)
RP-LC retention time [s]: 551
--
molecule: Cn1c(=O)n([C@H]2CCN(C(=O)C3CC3)C2)c2ncccc21
RP-LC retention time [s]: 639

P. Cc1cc(C)n(-c2nc(CC(=O)N3CCN(c4ccc(F)cc4)CC3)cs2)n1
Q. Cc1cnc(C(=O)N2CCC3(CCC3O)CC2)cn1 (stereo not given)
Please choose the item with the lower RP-LC retention time value from this pair: P and Q Could you answer with the label of the item you picked?
Q
(Q: 605 s, P: 968 s)

1. Cc1cccc(Oc2coc3cc(OC(=O)c4ccncc4)ccc3c2=O)c1
2. O=C(CCc1cn(-c2ccccc2)nc1-c1ccc2c(c1)OCO2)NCCCN1CCOCC1
Which value of RP-LC retention time is smaller, the one for 1 or the one for 2 ? Answer format: the label of the selected item.
2

I. CN(Cc1cccn1C)C(=O)NC1CCCCC1
II. CCOC(=O)c1cc(C2CC2)nc2c1c(=O)n(Cc1cccc(C(F)(F)F)c1)c(=O)n2C
# compare RP-LC retention time for I vs II ; return the one with the smaller value Provide the label of your selected option as the answer.
I
(I: 836 s, II: 1270 s)
